B1: WEE1 (parent)
chain: INPFTPDSLLLHSSGQCRRRKRTY

Variants of: B1
Assay: protein stability index of a GFP-peptide fusion (GPS, HEK-293T) (PSI 1-6); higher = more stable;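 also: lentivirally expressed fusions sorted by FACS into six bins by GFP to DsRed ratio, PSI derived from sequencing read proportions per bin multiplied by bin number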
Conditions: c terminus: a fixed tail appended
Decision: protein stability index compared against 3; not below it gives True, below it gives False.

In [3]: df
Out[3]:
    mutant_code  assigned_label
 0         R18L            True
 1          S8V            True
 2          F4Y            True
 3          S8G            True
 4         S13T            True
 5          L9V            True
 6          D7W            True
 7         T23N            True
 8          P6M           False
 9         R22D            True
10          D7F           False
11          D7R            True
12         L10N            True
13         S13V           False
14          P6Y           False
15         G15T            True
16         G15N            True
17         S13K            True
18          D7T            True
19         Y24Q            True
20         Y24D            True
21          P3F           False
22          I1M            True
23         R22N            True
24         C17H            True
25         S13E            True
26         K21A            True
27          P3N            True
28         S13H            True
